Species: Rattus norvegicus
Experiment: Open TG-GATES - Regimen: Single
Format: toxicity, organism-based, Sprague-Dawley
Parameters: regimen Single, gender Male, age 6 weeks
Details: in vivo, po, 1000 mg/kg, 9 h, tissue Kidney, route gavage, dose level High
Assay metric: KIDNEY_TOTAL
Value and unit, in that order.

Worked cases, answers included:
1) O=C(OC[C@H]1O[C@@H](OC(=O)c2cc(O)c(O)c(OC(=O)c3cc(O)c(O)c(O)c3)c2)[C@H](OC(=O)c2cc(O)c(O)c(OC(=O)c3cc(O)c(O)c(O)c3)c2)[C@@H](OC(=O)c2cc(O)c(O)c(OC(=O)c3cc(O)c(O)c(O)c3)c2)[C@@H]1OC(=O)c1cc(O)c(O)c(OC(=O)c2cc(O)c(O)c(O)c2)c1)c1cc(O)c(O)c(OC(=O)c2cc(O)c(O)c(O)c2)c1 [TANNIC ACID] : 1.7 g
2) CNC(=C[N+](=O)[O-])NCCSCc1ccc(CN(C)C)o1 [RANITIDINE] : 1.9 g
3) COC(=O)C1=C(C)NC(C)=C(C(=O)OC)C1c1ccccc1[N+](=O)[O-] [NIFEDIPINE] : 1.7 g
4) CN/C(=N/CCSCc1nc[nH]c1C)NC#N [CIMETIDINE] : 1.9 g

Okay, now this compound:
[Q] Report KIDNEY_TOTAL for Cc1nnc2n1-c1ccc(Cl)cc1C(c1ccccc1Cl)=NC2 [TRIAZOLAM] please.
[A] 1.8 g

====

Species on record: Rattus norvegicus
Experiment: Open TG-GATES - Regimen: Single
Format: toxicity, organism-based, Sprague-Dawley
Parameters: regimen Single, gender Male, age 6 weeks
Conditions: in vivo, po, 0 mg/kg, 3 h, tissue Blood, route gavage, dose level Control
Listed here: items and their measured Fbg.

Worked cases, answers included:
1. NC1=NC(=O)C(c2ccccc2)O1 (stereo not drawn) : 266 mg/dL
2. CC(C)NNC(=O)c1ccncc1 : 318.8 mg/dL
3. COC(=O)C1=C(C)NC(C)=C(C(=O)OC)C1c1ccccc1[N+](=O)[O-] : 271 mg/dL
4. CN/C(=N/CCSCc1nc[nH]c1C)NC#N : 217.6 mg/dL
5. CN(C)CCC(c1ccc(Cl)cc1)c1ccccn1 (stereo not drawn) : 288.8 mg/dL
6. CCCc1cc(=O)[nH]c(=S)[nH]1 : 217.4 mg/dL

[Q] Report Fbg for CN1C(=O)CCS(=O)(=O)C1c1ccc(Cl)cc1 (stereo not drawn) please.
[A] 315.6 mg/dL

[Q] Now try Brc1ccccc1 .
[A] 247.4 mg/dL

[Q] Now try CNC(=C[N+](=O)[O-])NCCSCc1ccc(CN(C)C)o1 .
[A] 215 mg/dL

[Q] Now try Nc1c2c(nc3ccccc13)CCCC2 .
[A] 293.2 mg/dL

[Q] Now try Cc1nnc2n1-c1ccc(Cl)cc1C(c1ccccc1Cl)=NC2 .
[A] 266.4 mg/dL

[Q] Now try CCOc1ccc(NC(C)=O)cc1 .
[A] 292 mg/dL

[Q] Now try O=C(OC[C@H]1O[C@@H](OC(=O)c2cc(O)c(O)c(OC(=O)c3cc(O)c(O)c(O)c3)c2)[C@H](OC(=O)c2cc(O)c(O)c(OC(=O)c3cc(O)c(O)c(O)c3)c2)[C@@H](OC(=O)c2cc(O)c(O)c(OC(=O)c3cc(O)c(O)c(O)c3)c2)[C@@H]1OC(=O)c1cc(O)c(O)c(OC(=O)c2cc(O)c(O)c(O)c2)c1)c1cc(O)c(O)c(OC(=O)c2cc(O)c(O)c(O)c2)c1 .
[A] 216.2 mg/dL

====

Species on record: Rattus norvegicus
Experiment: Open TG-GATES - Regimen: Daily Repeat
Format: toxicity, organism-based, Sprague-Dawley
Set-up: regimen Daily Repeat, gender Male, age 6 weeks
Conditions: in vivo, po, 100 mg/kg, 72 h, tissue Blood, route gavage, dose level Low, time 3 day
Assay metric: PT

Worked cases, answers included:
1. Cc1nnc2n1-c1ccc(Cl)cc1C(c1ccccc1Cl)=NC2 : 13.2 s
2. COC(=O)C1=C(C)NC(C)=C(C(=O)OC)C1c1ccccc1[N+](=O)[O-] : 13.8 s
3. CCOc1ccc(NC(C)=O)cc1 : 13.4 s
4. O=C(OC[C@H]1O[C@@H](OC(=O)c2cc(O)c(O)c(OC(=O)c3cc(O)c(O)c(O)c3)c2)[C@H](OC(=O)c2cc(O)c(O)c(OC(=O)c3cc(O)c(O)c(O)c3)c2)[C@@H](OC(=O)c2cc(O)c(O)c(OC(=O)c3cc(O)c(O)c(O)c3)c2)[C@@H]1OC(=O)c1cc(O)c(O)c(OC(=O)c2cc(O)c(O)c(O)c2)c1)c1cc(O)c(O)c(OC(=O)c2cc(O)c(O)c(O)c2)c1 : 11.5 s
5. CNC(=C[N+](=O)[O-])NCCSCc1ccc(CN(C)C)o1 : 11.9 s

[Q] Report PT for CN/C(=N/CCSCc1nc[nH]c1C)NC#N please.
[A] 12.6 s

====

Organism: Rattus norvegicus
Assay: Open TG-GATES - Regimen: Daily Repeat
Type: toxicity, organism-based, Sprague-Dawley
Set-up: regimen Daily Repeat, gender Male, age 6 weeks
Conditions: in vivo, po, 1000 mg/kg, […], tissue Plasma, route gavage, dose level High, time 14 day
Assay metric: TBIL (mg/dL)
Report the value in mg/dL with no unit label.

1) CNC(=C[N+](=O)[O-])NCCSCc1ccc(CN(C)C)o1 [RANITIDINE] : 0.1
2) COC(=O)C1=C(C)NC(C)=C(C(=O)OC)C1c1ccccc1[N+](=O)[O-] [NIFEDIPINE] : 0.018
3) CN/C(=N/CCSCc1nc[nH]c1C)NC#N [CIMETIDINE] : 0.2

[Q] Report TBIL for CCOc1ccc(NC(C)=O)cc1 [PHENACETIN] please.
[A] 0.1

====

Species: Rattus norvegicus
Test: Open TG-GATES - Regimen: Single
Type: toxicity, organism-based, Sprague-Dawley
Design: regimen Single, gender Male, age 6 weeks
Settings: in vivo, po, 300 mg/kg, 3 h, tissue Plasma, route gavage, dose level Middle
Please use true (1) whenever LDH is not below 90 IU/L, and false (0) whenever it is.

1. COC(=O)C1=C(C)NC(C)=C(C(=O)OC)C1c1ccccc1[N+](=O)[O-] : false (0)

[Q] Decide: LDH of O=C(OC[C@H]1O[C@@H](OC(=O)c2cc(O)c(O)c(OC(=O)c3cc(O)c(O)c(O)c3)c2)[C@H](OC(=O)c2cc(O)c(O)c(OC(=O)c3cc(O)c(O)c(O)c3)c2)[C@@H](OC(=O)c2cc(O)c(O)c(OC(=O)c3cc(O)c(O)c(O)c3)c2)[C@@H]1OC(=O)c1cc(O)c(O)c(OC(=O)c2cc(O)c(O)c(O)c2)c1)c1cc(O)c(O)c(OC(=O)c2cc(O)c(O)c(O)c2)c1 >= 90 IU/L?
[A] false (0)

[Q] Now try Cc1nnc2n1-c1ccc(Cl)cc1C(c1ccccc1Cl)=NC2 .
[A] false (0)

[Q] Now try CN/C(=N/CCSCc1nc[nH]c1C)NC#N .
[A] true (1)

[Q] Now try CNC(=C[N+](=O)[O-])NCCSCc1ccc(CN(C)C)o1 .
[A] true (1)

====

Species on record: Rattus norvegicus
Assay: Open TG-GATES - Regimen: Daily Repeat
Type: toxicity, organism-based, Sprague-Dawley
Set-up: regimen Daily Repeat, gender Male, age 6 weeks
Settings: in vivo, po, 300 mg/kg, […], tissue Blood, route gavage, dose level Middle, time 28 day
Assay metric: Eos
Value and unit, in that order.

Worked cases, answers included:
1. Cc1nnc2n1-c1ccc(Cl)cc1C(c1ccccc1Cl)=NC2 : 1.2%
2. CCOc1ccc(NC(C)=O)cc1 : 1.2%

Okay, now this compound:
[Q] Report Eos for CNC(=C[N+](=O)[O-])NCCSCc1ccc(CN(C)C)o1 please.
[A] 1.2%

====

Species on record: Rattus norvegicus
Test: Open TG-GATES - Regimen: Daily Repeat
Type: toxicity, organism-based, Sprague-Dawley
Set-up: regimen Daily Repeat, gender Male, age 6 weeks
Conditions: in vivo, po, 100 mg/kg, […], tissue Blood, route gavage, dose level Low, time 28 day
Assay metric: Ht (%)
Report the value in % with no unit label.

Worked cases, answers included:
1. CN/C(=N/CCSCc1nc[nH]c1C)NC#N [CIMETIDINE] : 42.3
2. CCOc1ccc(NC(C)=O)cc1 [PHENACETIN] : 43.8
3. COC(=O)C1=C(C)NC(C)=C(C(=O)OC)C1c1ccccc1[N+](=O)[O-] [NIFEDIPINE] : 42.3
4. Cc1nnc2n1-c1ccc(Cl)cc1C(c1ccccc1Cl)=NC2 [TRIAZOLAM] : 45.2
5. CNC(=C[N+](=O)[O-])NCCSCc1ccc(CN(C)C)o1 [RANITIDINE] : 45.1

[Q] Report Ht for O=C(OC[C@H]1O[C@@H](OC(=O)c2cc(O)c(O)c(OC(=O)c3cc(O)c(O)c(O)c3)c2)[C@H](OC(=O)c2cc(O)c(O)c(OC(=O)c3cc(O)c(O)c(O)c3)c2)[C@@H](OC(=O)c2cc(O)c(O)c(OC(=O)c3cc(O)c(O)c(O)c3)c2)[C@@H]1OC(=O)c1cc(O)c(O)c(OC(=O)c2cc(O)c(O)c(O)c2)c1)c1cc(O)c(O)c(OC(=O)c2cc(O)c(O)c(O)c2)c1 [TANNIC ACID] please.
[A] 45
